Source of measurements: PubChem BioAssay AID1159580

Assay: chemical genetic growth profiling, strain panel (AID 1159580);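 further: tested at 20 µM; growth read once vehicle control cultures reached saturation at 30 °C; 1 = growth at the plate median or of vehicle wells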
Conditions: S. cerevisiae deletion strains, growth OD, locus YDR195W, strain ref2
The campaign covered roughly 5,500 compounds. About 2,000 (36%) were called active. Inconclusive results (about 18%) are left out. The list shows a part of the results.
MEASURE_NAME: normalized growth

Please review the entries below; each comes with its answer.
NC(=O)c1ncn([C@@H]2O[C@H](CO)[C@@H](O)[C@H]2O)n1 : 0.979 (inactive)
COc1cccc2c(C)cc(=O)[nH]c12 : 1.15 [resistant] (active)
CC(C)c1c(O)ccc2c1CCC1C(C)(C)CCC[C@]21C (stereo partly specified) : 0.163 (active)
NC(=O)NCCCC(N)C(=O)O (stereo unspecified) : 1.02 (inactive)
CCCC(C)(COC(N)=O)COC(=O)NC(C)C (stereo unspecified) : 1 (inactive)

Let's switch to this compound now.
# normalized growth lookup, item C[C@]12C=CC(=O)C=C1CCC1C2[C@@H](O)C[C@@]2(C)C1CC[C@]2(O)C(=O)COP(=O)(O)O (stereo partly specified)
0.954 (inactive)

---

Assay: chemical genetic growth profiling, strain panel (AID 1159580)
Details: S. cerevisiae deletion strains, growth OD, locus YHR129C, strain ARP1
About 2,000 (36%) of roughly 5,500 compounds were called active. Not shown: some 18% with an inconclusive outcome. No stated cut-off is given here; in the data, active means normalized growth mostly below about 0.91 (no sharp cut-off); inconclusive means no clear call, values can overlap the other calls; inactive means mostly above about 0.92. This is one part of the list.
Allowed answers: y (active), n (inactive)

State the result this test recorded for CC12CCC3c4ccc(OCc5ccccc5)cc4CCC3C1C[C@@H](O)[C@@H]2O (stereo partly specified) .
y

---

Experiment: chemical genetic growth profiling, strain panel (AID 1159580)
Settings: S. cerevisiae deletion strains, growth OD, locus YIL073C, strain SPO22, stronger effect = lower value
Among all 5,500 compounds or so, about 2,000 (36%) were called active. About 18% were inconclusive and are not listed. The list shows a part of the results.
MEASURE_NAME: normalized growth
Answer with a number only.

Please review the following examples before continuing.
CC(=O)[C@@]1(O)CCC2C3C[C@H](C)C4=CC(=O)C=CC4(C)[C@@]3(F)[C@@H](O)C[C@@]21C (some centres undefined) : 1.02
CC1CCC2(OC1)OC1CC3C4CC[C@H]5C[C@@H](O)CC[C@]5(C)C4CC(=O)[C@]3(C)C1C2C (some centres undefined) : 0.983
C[C@@H]([C@H](O)c1ccccc1)N(C)C : 1.05
Cc1ccccc1OCC(O)CO (centres undefined) : 1.08
CC1CC[C@@]2(OC1)O[C@H]1CC3C4CC[C@@H]5C[C@@H](O)CC[C@]5(C)C4CC[C@]3(C)[C@H]1[C@@H]2C (some centres undefined) : 1.12
CCOC(=O)NC1=C(C2CC2)C(=O)C(NC(=O)OCC)=C(C2CC2)C1=O : 0.9
C[C@@H]1CC[C@@]2(OC1)O[C@H]1CC3C4CC[C@H]5C[C@@H](O)CC[C@]5(C)C4CC[C@]3(C)[C@H]1[C@@H]2C (some centres undefined) : 0.892
Cc1cc(OC(=O)c2c(C)cc(OC(=O)c3c(C)cc(O)cc3O)cc2O)cc(O)c1C(=O)O : 0.956
CCN1C[C@]2(C)CC[C@H](OC)[C@]34C2[C@H](O)[C@]2(OCO[C@@]25C[C@H](OC)[C@H]2C[C@]3(O)C5[C@H]2O)C14 : 1
Cc1cc(OC(=O)c2c(C)cc(O)cc2O)cc(O)c1C(=O)O : 1.01

Next up:
Dear colleague, I am looking for the recorded normalized growth of the following compound: `CCC(=O)c1c(O)cc(O)cc1O`
1.07

---

Some compounds, each annotated with its measured normalized growth.
Test: chemical genetic growth profiling, strain panel (AID 1159580)
Conditions: S. cerevisiae deletion strains, growth OD, locus YCL016C, strain dcc1, stronger effect = lower value
Hit rate of the full screen: of about 5,500 compounds, about 2,000 (36%) were called active. Not shown: some 18% with an inconclusive outcome. This is one part of the list.

COc1cc(OC)c2ccc(=O)oc2c1 : 0.968 (inactive)
Cc1ccccc1OCC(O)CO (stereo unspecified) : 0.967 (inactive)
CC(C)(C)NCC(O)c1cc(O)cc(O)c1 (stereo unspecified) : 0.967 (inactive)
COc1ccc(-c2oc3cc(O[C@H]4O[C@H](CO)[C@@H](O)[C@H](O)[C@H]4O)c(OC)c(O)c3c(=O)c2OC)cc1O : 1 (inactive)
CC(C)c1c(O)c(-c2cc3c(c(C(C)C)c2O)CCC2C(C)(C)CCC[C@]32C)cc2c1CCC1C(C)(C)CCC[C@]21C (stereo partly specified) : 0.976 (inactive)
COc1c2ccoc2cc2oc(=O)ccc12 : 0.959 (inactive)
NC(=O)c1ncn([C@@H]2O[C@H](CO)[C@@H](O)[C@H]2O)n1 : 0.979 (inactive)
COc1ccc2ccc(=O)oc2c1 : 1 (inactive)
CC(=O)[C@@]1(O)CCC2C3C[C@H](C)C4=CC(=O)C=CC4(C)[C@@]3(F)[C@@H](O)C[C@@]21C (stereo partly specified) : 0.963 (inactive)
CC(C)(C)NCC(O)c1cc(Cl)c(N)c(Cl)c1 (stereo unspecified) : 0.998 (inactive)

Now look at this one.
Dear colleague, I am looking for the recorded normalized growth of the following compound: `O=c1c(O)c(-c2ccc(O)c(O)c2)oc2c(O[C@@H]3O[C@H](CO)[C@H](O)[C@@H](O)[C@H]3O)c(O)cc(O)c12`
1.02 (inactive)

---

Test: chemical genetic growth profiling, strain panel (AID 1159580);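 further: tested at 20 µM; growth read once vehicle control cultures reached saturation at 30 °C; 1 = growth at the plate median or of vehicle wells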
Conditions: S. cerevisiae deletion strains, growth OD, locus YGL253W, strain hxk2, stronger effect = lower value
Among all 5,500 compounds or so, about 2,000 (36%) were called active. Inconclusive results (about 18%) are left out. The list shows a part of the results.
MEASURE_NAME: normalized growth
I'd appreciate a reply containing only the number, no unit.

CCC(c1ccc(O)cc1)C(CC)c1ccc(O)cc1 (stereo not given) : 0.953

Which measured normalized growth value corresponds to `CCCCCCCCCCCC1=C(O)C(=O)C=C(O)C1=O` ?
0.359

Quick one: normalized growth for CC1CC[C@@]2(OC1)O[C@H]1CC3C4CC[C@@H]5C[C@@H](O)CC[C@]5(C)C4CC[C@]3(C)[C@H]1[C@@H]2C (stereo not given in full) ?
1.07

Give the measured normalized growth of NS(=O)(=O)c1cc(C2(O)NC(=O)c3ccccc32)ccc1Cl (stereo not given) .
1

---

Test: chemical genetic growth profiling, strain panel (AID 1159580);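 further: tested at 20 µM; growth read once vehicle control cultures reached saturation at 30 °C; 1 = growth at the plate median or of vehicle wells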
Settings: S. cerevisiae deletion strains, growth OD, locus YKL085W, strain MDH1 (second series), stronger effect = lower value
The campaign covered roughly 5,500 compounds. About 2,000 (36%) were called active. Not shown: some 18% with an inconclusive outcome. This is one part of the list.
Entries annotated with measured normalized growth
Write the value as a bare number.

Some compounds with recorded normalized growth:
O=C(OC1Cc2c(O)cc(O)cc2OC1c1cc(=O)c(O)c2c(O)c(O)cc(C3Oc4cc(O)cc(O)c4CC3O)c2c1)c1cc(O)c(O)c(O)c1 (stereo not drawn) : 0.994
CCOCN(C(=O)CCl)c1c(C)cccc1CC : 0.991
O=c1c(O)c(-c2ccc(O)cc2O)oc2cc(O)cc(O)c12 : 0.999
O=c1c(O)c(-c2ccc(O)c(O)c2)oc2cc(O)cc(O)c12 : 1.06
COc1c(C(C)C)oc2cc3oc(=O)ccc3cc12 : 0.958
O=C(O[C@@H]1Cc2c(O)cc(O)cc2O[C@@H]1c1cc(O)c(=O)c2c(O)c(O)cc([C@H]3Oc4cc(O)cc(O)c4C[C@H]3O)c2c1)c1cc(O)c(O)c(O)c1 : 1.03
O=C(O[C@@H]1Cc2c(O)cc(O)cc2O[C@@H]1c1cc(O)c(=O)c2c(O)c(O)cc([C@H]3Oc4cc(O)cc(O)c4C[C@H]3OC(=O)c3cc(O)c(O)c(O)c3)c2c1)c1cc(O)c(O)c(O)c1 : 1.05

Requested read-out: normalized growth. Entry: `COc1cc(OC)c2ccc(=O)oc2c1`
1.01

---

Experiment: chemical genetic growth profiling, strain panel (AID 1159580);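 further: tested at 20 µM; growth read once vehicle control cultures reached saturation at 30 °C; 1 = growth at the plate median or of vehicle wells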
Details: S. cerevisiae deletion strains, growth OD, locus YLR371W, strain rom2
In all, about 5,500 compounds went through this assay and about 2,000 (36%) were called active. Inconclusive results (about 18%) are left out. Cut-off read from the data, not from the text of the source: active = normalized growth mostly below about 0.91 (no sharp cut-off); inconclusive = no clear call, values can overlap the other calls; inactive = mostly above about 0.92. This is one part of the list.
// classify into active, inactive

C[C@@H]1O[C@@H](OC[C@H]2OC(Oc3c(-c4ccc(OCCO)c(OCCO)c4)oc4cc(OCCO)cc(O)c4c3=O)[C@H](O)[C@@H](O)[C@@H]2O)[C@H](O)[C@H](O)[C@H]1O (stereo partly specified) : inactive
CC(C)C1COc2cc3oc(=O)ccc3cc2O1 (stereo unspecified) : active
COc1cccc2c(C)cc(=O)[nH]c12 : active
C[C@]12CCC3c4ccc(OS(=O)(=O)O)cc4CCC3C1CC[C@H]2O (stereo partly specified) : inactive
CCOC(=O)c1c(C)cc(OC)cc1O : inactive

# fetch the recorded call for `Cc1cc(OC(=O)c2c(C)cc(OC(=O)c3c(C)cc(O)cc3O)cc2O)cc(O)c1C(=O)O` here
inactive

What was the test verdict on `C=C(C)[C@H]1COc2cc3oc(=O)ccc3cc2O1` ?
active

Kindly provide the recorded test outcome for the following compound: CCN(Cc1ccncc1)C(=O)C(CO)c1ccccc1 (stereo unspecified)
inactive

Fill in: this test's call for `COc1cc(OC)c2c(=O)c(OC)c(-c3ccc(OC)c(OC)c3)oc2c1` is ___
inactive

Assay result, entry `CCOC(=O)c1c(C)cc(O)cc1O` — outcome?
active

Assay result, entry `O=C(O)C1=C[C@@H](O)[C@@H](O)[C@H](O)C1` — outcome?
inactive

Tell me the recorded outcome of this test for `COc1cc(OC)c2c(=O)c(O)c(-c3ccc(OC)c(OC)c3)oc2c1` .
active

How did this test come out for `CCc1cc(C(N)=S)ccn1` ?
inactive

Each compound tested received a call. Report the one for `COC(=O)c1c(C)cc(OC)cc1O` .
inactive

Assay result, entry CCCCCCC(C)OC(=O)COc1ccc(Cl)cc1Cl (stereo unspecified) — outcome?
inactive

Tell me the recorded outcome of this test for `COc1ccc(-c2cc(=O)c3c(O)cc(O[C@H]4O[C@H](CO[C@@H]5O[C@@H](C)[C@H](O)[C@@H](O)[C@H]5O)[C@@H](O)[C@H](O)[C@H]4O)cc3o2)cc1` .
inactive

Could you kindly confirm the outcome this assay logged for Cc1ccccc1OCC(O)CO (stereo unspecified) ?
inactive

What did this assay record as the result for `O=c1c(O)c(-c2cc(O)c(O)c(O)c2)oc2cc(O)cc(O)c12` ?
inactive

How was O=C(Cc1cccs1)NC1C(=O)N2C(C(=O)[O-])=C(C[n+]3ccccc3)CSC12 (stereo unspecified) classified in this test?
inactive

Any idea what this test logged for COC(=O)C1OC(=O)C2OC23C1(C)CCC1C2(C)C(OC(C)=O)CC(OC(C)=O)C(C)(C)C2CC(=O)C13C (stereo unspecified) ?
inactive

Record request — test call for `COc1ccc(-c2oc3c(CC=C(C)C)c(O[C@@H]4O[C@H](CO)[C@@H](O)[C@H](O)[C@H]4O)cc(O)c3c(=O)c2O[C@@H]2O[C@@H](C)[C@H](O)[C@@H](O)[C@H]2O)cc1`
inactive
